What follows is a collection of pIC50 values obtained with DNA gyrase subunit B (Mycobacterium smegmatis (strain ATCC 700084 / mc(2)155)).
Sequence (A0QNE0 whole entry): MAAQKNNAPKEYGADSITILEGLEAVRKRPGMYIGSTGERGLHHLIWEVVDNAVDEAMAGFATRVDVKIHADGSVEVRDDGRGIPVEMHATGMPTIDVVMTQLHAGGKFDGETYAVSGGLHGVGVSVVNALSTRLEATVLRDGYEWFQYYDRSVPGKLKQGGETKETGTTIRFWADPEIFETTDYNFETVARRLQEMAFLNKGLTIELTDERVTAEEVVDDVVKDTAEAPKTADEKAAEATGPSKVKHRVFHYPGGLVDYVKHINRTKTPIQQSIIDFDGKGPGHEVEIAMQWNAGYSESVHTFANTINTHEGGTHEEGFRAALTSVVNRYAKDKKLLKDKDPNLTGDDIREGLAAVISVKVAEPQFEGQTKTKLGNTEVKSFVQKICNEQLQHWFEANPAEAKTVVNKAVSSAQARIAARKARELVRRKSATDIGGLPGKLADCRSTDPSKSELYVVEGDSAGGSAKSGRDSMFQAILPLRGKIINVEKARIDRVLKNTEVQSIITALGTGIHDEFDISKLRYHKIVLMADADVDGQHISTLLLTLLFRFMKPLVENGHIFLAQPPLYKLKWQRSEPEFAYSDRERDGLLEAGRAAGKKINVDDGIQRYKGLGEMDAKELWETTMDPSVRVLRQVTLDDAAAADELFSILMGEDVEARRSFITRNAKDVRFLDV
One number for each entry, as −log10 of the molar value.

[[record]]
smiles_code = "S=C(Nc1ccccc1)N1CCN(c2ccnc3cc(Cl)ccc23)CC1"
study_target = "DNA gyrase subunit B (Mycobacterium smegmatis (strain ATCC 700084 / mc(2)155))"
assay_value = 5.39

[[record]]
smiles_code = "Cc1ccc(NC(=O)N2CCN(c3ccnc4cc(Cl)ccc34)CC2)cc1"
study_target = "DNA gyrase subunit B (Mycobacterium smegmatis (strain ATCC 700084 / mc(2)155))"
assay_value = 4.80

[[record]]
smiles_code = "O=C(c1ccc[nH]1)N1CCN(c2ccnc3cc(Cl)ccc23)CC1"
study_target = "DNA gyrase subunit B (Mycobacterium smegmatis (strain ATCC 700084 / mc(2)155))"
assay_value = 4.85

[[record]]
smiles_code = "O=C(Nc1ccc([N+](=O)[O-])cc1)N1CCN(c2ccnc3cc(Cl)ccc23)CC1"
study_target = "DNA gyrase subunit B (Mycobacterium smegmatis (strain ATCC 700084 / mc(2)155))"
assay_value = 5.04


Query pIC50 for Clc1ccc2c(N3CCN(Cc4ccc[nH]4)CC3)ccnc2c1
4.77

----------
test system: Mycobacterium tuberculosis; assay: microbe, parasite or virus in culture; conditions: H37Rv, 168 h
Description: Antimycobacterial activity against Mycobacterium tuberculosis H37Rv after 7 days by microplate alamar blue assay
readout.name: log10 MIC (log10 of the value in µM)
Heads up: the numbers are on a log10 scale; they represent MIC in µM.

Below, 5 compounds whose answers are already recorded.
[[record]]
smiles_code = "COc1ccc(NC(=S)N2CCN(c3ccnc4cc(Cl)ccc34)CC2)cc1"
readout_name = "log10 MIC"
assay_value = 1.48

[[record]]
smiles_code = "CCNC(=O)N1CCN(c2ccnc3cc(Cl)ccc23)CC1"
readout_name = "log10 MIC"
assay_value = 2.20

[[record]]
smiles_code = "O=C(CN1CCN(c2ccnc3cc(Cl)ccc23)CC1)NCc1cccs1"
readout_name = "log10 MIC"
assay_value = 1.49

[[record]]
smiles_code = "Fc1ccc(NC(=S)N2CCN(c3ccnc4cc(Cl)ccc34)CC2)cc1"
readout_name = "log10 MIC"
assay_value = 0.89

[[record]]
smiles_code = "CC(C)NC(=O)N1CCN(c2ccnc3cc(Cl)ccc23)CC1"
readout_name = "log10 MIC"
assay_value = 2.19


# map each compound to its log10 MIC
1. Clc1ccc2c(N3CCN(Cc4nc5ccccc5[nH]4)CC3)ccnc2c1
2. S=C(Nc1ccccc1)N1CCN(c2ccnc3cc(Cl)ccc23)CC1
3. O=C(CN1CCN(c2ccnc3cc(Cl)ccc23)CC1)Nc1ccccc1
4. O=C(c1cc2cc(F)ccc2[nH]1)N1CCN(c2ccnc3cc(Cl)ccc23)CC1
5. Clc1ccc2c(N3CCN(Cc4ccc[nH]4)CC3)ccnc2c1
6. S=C(Nc1ccc(Cl)cc1)N1CCN(c2ccnc3cc(Cl)ccc23)CC1
7. O=C(CN1CCN(c2ccnc3cc(Cl)ccc23)CC1)Nc1ncc([N+](=O)[O-])s1

1. 1.44
2. 1.21
3. 1.55
4. 1.18
5. 1.88
6. 1.48
7. 1.49

----------
system: Mycobacterium tuberculosis; assay: microbe, parasite or virus in culture; details: H37Rv, 168 h
readout.name: MIC (µM)
Numbers only, in µM.

Known results for compounds:
[[record]]
compound = "O=C(CN1CCN(c2ccnc3cc(Cl)ccc23)CC1)NCCc1ccccn1"
unit_text = "µM"
assay_value = 61

[[record]]
compound = "O=C(CN1CCN(c2ccnc3cc(Cl)ccc23)CC1)NCc1ccccc1"
unit_text = "µM"
assay_value = 63.3

[[record]]
compound = "O=C(c1cc2ccccc2[nH]1)N1CCN(c2ccnc3cc(Cl)ccc23)CC1"
unit_text = "µM"
assay_value = 16

[[record]]
compound = "O=C(CN1CCN(c2ccnc3cc(Cl)ccc23)CC1)Nc1nc2ccc([N+](=O)[O-])cc2s1"
unit_text = "µM"
assay_value = 25.8

[[record]]
compound = "O=C(NCc1ccccc1)N1CCN(c2ccnc3cc(Cl)ccc23)CC1"
unit_text = "µM"
assay_value = 17.7

[[record]]
compound = "CC1COc2c(N3CCN(C)CC3)c(F)cc3c(=O)c(C(=O)O)cn1c23 (configuration not stated)"
unit_text = "µM"
assay_value = 2.16


Now examine the next entry.
Quote Mycobacterium tuberculosis MIC for entry S=C(NCc1ccccc1)N1CCN(c2ccnc3cc(Cl)ccc23)CC1 .
15.8

----------
Measured IC50 (DNA gyrase subunit B (Mycobacterium smegmatis (strain ATCC 700084 / mc(2)155)))
Answers are plain numbers, in µM.

Some compounds with recorded IC50:
[[record]]
smiles_code = "COc1ccc2[nH]c(C(=O)N3CCN(c4ccnc5cc(Cl)ccc45)CC3)cc2c1"
study_target = "DNA gyrase subunit B (Mycobacterium smegmatis (strain ATCC 700084 / mc(2)155))"
assay_value = 24.3

[[record]]
smiles_code = "O=C(CN1CCN(c2ccnc3cc(Cl)ccc23)CC1)NCc1ccccn1"
study_target = "DNA gyrase subunit B (Mycobacterium smegmatis (strain ATCC 700084 / mc(2)155))"
assay_value = 12.2


Turning to the following compound.
Specify IC50 for O=C(c1cc2ccccc2[nH]1)N1CCN(c2ccnc3cc(Cl)ccc23)CC1 and stop.
8.53

----------
biological target: DNA gyrase subunit B (Mycobacterium smegmatis (strain ATCC 700084 / mc(2)155))
readout.name: pIC50
Numbers only, as −log10 of the molar value.

Study these solved cases before continuing.
[[record]]
smiles_code = "O=C(CN1CCN(c2ccnc3cc(Cl)ccc23)CC1)NCc1cccs1"
study_target = "DNA gyrase subunit B (Mycobacterium smegmatis (strain ATCC 700084 / mc(2)155))"
assay_value = 4.83

[[record]]
smiles_code = "O=C(CN1CCN(c2ccnc3cc(Cl)ccc23)CC1)Nc1cc(C(F)(F)F)ccc1Cl"
study_target = "DNA gyrase subunit B (Mycobacterium smegmatis (strain ATCC 700084 / mc(2)155))"
assay_value = 4.50


Dear colleague, could you send me pIC50 for each of the items below? Thanks.
1. O=C(c1cc2cc(F)ccc2[nH]1)N1CCN(c2ccnc3cc(Cl)ccc23)CC1
2. COc1ccc2c(N3CCN(CC(=O)NCc4ccccn4)CC3)ccnc2c1
3. O=C(Nc1ccc(Cl)cc1)N1CCN(c2ccnc3cc(Cl)ccc23)CC1
4. COc1ccc(NC(=S)N2CCN(c3ccnc4cc(Cl)ccc34)CC2)cc1

1: 4.87; 2: 4.29; 3: 5.00; 4: 4.96

Give me pIC50 for each of these compounds, listed below.
1. Cc1ccc(NC(=S)N2CCN(c3ccnc4cc(Cl)ccc34)CC2)cc1
2. CC(C)NC(=O)N1CCN(c2ccnc3cc(Cl)ccc23)CC1

1: 4.86; 2: 4.36

Ref: ChEMBL document CHEMBL3865798
